B1: EEHEE_rd4_0003 (parent)
chain: KKVTINGVEIKFNNPEEAVKFALELAKRLNLRIEFHGDQIKIE

variants of: B1; test: folding stability dG (cDNA display proteolysis); higher = more stable; conditions: PBS, room temperature
In this scheme, each record receives a class according to its folding stability dG; the ranges are low range = under 9 kJ/mol, mid range = from 9 kJ/mol up to 10 kJ/mol, high range = 10 kJ/mol and over

>>> print(df.to_string())
    mutation_descriptor  qualitative_label
 0                 F21G          low range
 1                 P15Y         high range
 2                 K27C         high range
 3                  T4K          mid range
 4                 R32G          low range
 5                 N30P          low range
 6                 A26N          low range
 7                  I5A          low range
 8                 E17V          mid range
 9                 K11M         high range
10                 L25M         high range
11                 K41C         high range
12                  K1A         high range
13                 A22G          low range
14                  V8T          mid range
15                 E34Y         high range
16                 Q39S         high range
17                 K27D          low range
